Each entry below lists one item and its recorded fold repression value.
Target: T1, ECF01_3473
T1 chain: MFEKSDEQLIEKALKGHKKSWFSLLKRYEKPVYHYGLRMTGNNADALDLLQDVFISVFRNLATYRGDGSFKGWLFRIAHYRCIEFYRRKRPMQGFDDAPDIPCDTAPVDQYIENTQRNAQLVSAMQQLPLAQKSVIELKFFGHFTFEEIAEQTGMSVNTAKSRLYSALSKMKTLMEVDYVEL

| binder | fold repression |
| --- | --- |
| AS25_1643_cl43 (protein) MTTDSNFNDPCRRQFSRDLPQKMARHTNEATGAMDMVKRDRFELLSAYLGGEVTAAERRQVEDWPANDVAVQRLYSRLLKLRQGIRTMPIPTAQQSPETTAEQVFAKVNRRSRLAWKLGGAAVAACVIGAVTNWLPGRQTGIPQLAQQPQEQPTQAVTTPDALPMIALNNPVIEIPKAAVASPTKFIQPQPQLGEIPPDIN | 2.75 |
| AS27_4265 (protein) MTGHPDVAEIADLAEGLLPTTRTTEVRQHLESCELCADVYASLTEIQGLLGTLPAPAPMPDDVAARIDAALAAEPPLGIADGTRVSRETSTPADRPAGHARPSSTGPGRKDRRRGGRRRIAVLGAVAAAAAIGIGSVVVSSLTEDSSSGNTAREQQTAIADTFSEGRLKDRVTNLVADGSAENGSRTPRSFGMESENGGETAENHVFKQPTVPECIRKGIGRDDAVIATEPGVYKGREALLVVLPDATNDTQVTAYIVETACVDQPAVGKAKILLEHSYARS | 3.99 |
| AS33_375 (protein) MMALSKKMLEQEPSEIELLLPWHAAGTLNARDARRVEDALARDPELAKQYAAIRGEYEETIHLNESLGAPSARAMQKLFGAIDAEPARETGSLPLSARIATFFASLSPRTLAWSASLGAVALVLQAGIIGAVLMKTQPTTFQTASLSTSAPITRELGAAVAPARALVRFTPEARVADITALLDSYQASIIGDAKGGMFRLQFDKAMSQDELASLLGRMQREKFVNLAVAAP | 5.29 |
| AS22_4450 (protein) MELDDMKHAWQTLEQRLDQQAAQTGQLLGVVHEETVRSSLRPLWVAQTAQLLCALALAIVSARSWIPHTDQPVAVIGGVLLQAWCMALAISAMVQLQLLTQFNVAGPLLRTQHALARLRRWRTRVAPWLGVAFWVLWIAVADALWRALTGQTLPTDWLVLNLLVGVAGGIGTWLGFRRLQRAQHPWLERIDRAHAGTGVIRAERMLEEIARFQRD | 1.32 |
| AS15_436 (protein) MAQSTEPKASPQEATAKGGDNTKGKSRKELQQQIDENLRRVYEEALVQEVPDRFAMLLDQLRQKGTGK | 4.77 |
| AS35_3582 (protein) MNPQKHSASVAEEQMLAHFRAHAPQQPAPALDQAILAAARRQAAHVEPARSWWRRWLEASRRPRWQAAFASLLGVALVLGLVSHNVLDDAERQARPEVAFSDVPLRDGVAGAAAAKRAMRAPAAPAPLSGEMSEPPALLASYASSGEAPQLMAEAAPPAPAALADRPPAQAAQQAKVQAALAGDFVAQARGKAVAVKPEVLDEALGAVLALREQGKTEQAATQLAELQKRFPGENLVERLERLATIAASARKRP | 5.93 |
